- Tested on: RAW264.7
- experiment-description: Antiinflammatory activity against LPS-stimulated mouse RAW264.7 cells assessed as inhibition of NO production after 18 hrs by Griess method
- Type: functional, cell-based
- conditions: RAW264.7, 18 h
assay-metric: IC50 (µM)

compound="C/C=C(\\C)C(=O)O[C@H]1C[C@@H](OC(=O)CC)[C@@]2(C(=O)OC)CO[C@H]3[C@@H](O)[C@@](C)(C45OC4(C)C4C[C@H]5O[C@@H]5OC=CC45O)C4[C@]1(CO[C@]4(O)C(=O)OC)[C@@H]32 (stereo not given in full)" assay_metric=IC50 qualifier_operator=> meas_value=20
compound=CC(=O)O[C@H]1C[C@@H]2[C@@]3(C)C=CC(=O)C(C)(C)[C@@H]3C[C@@H](O)[C@@]2(C)C2=CC[C@@H](c3ccoc3)[C@@]21C assay_metric=IC50 qualifier_operator== meas_value=11.9
compound="C=C1[C@@H]([C@@]2(C)C=CC(=O)C(C)(C)[C@@H]2CC(=O)OC)[C@@H](OC(C)=O)[C@H](O)[C@@]2(C)[C@H](c3ccoc3)C[C@H]3O[C@]132 [TURRAPUBIN E]" assay_metric=IC50 qualifier_operator=> meas_value=20
compound="C=C1[C@@H]([C@@]2(C)C=CC(=O)C(C)(C)[C@@H]2CC(=O)OC)[C@@H](OC(C)=O)[C@H](OC(=O)C(C)C)[C@@]2(C)[C@H](C(=O)O)C[C@H]3O[C@]132 [TURRAPUBESIC ACID B]" assay_metric=IC50 qualifier_operator=> meas_value=20
compound=CO[C@H]1O[C@@H]([C@@H]2OC2(C)C)C[C@H]1[C@@H]1CC=C2[C@]3(C)[C@H](O)C[C@H]4C(C)(C)C(=O)C=C[C@]4(C)[C@H]3CC[C@]21C assay_metric=IC50 qualifier_operator== meas_value=17.4

----------
- Test system: Artemia salina
- experiment-description: Toxicity in brine shrimp larva assessed as corrected mortality at 100 ppm after 24 hrs by microscopic analysis relative to control
- Format: functional
assay-metric: mortality at 100 ppm (%)

compound="C/C=C(\\C)C(=O)O[C@H]1C[C@@H](OC(C)=O)[C@@]2(C(=O)OC)CO[C@H]3[C@@H](O)[C@@](C)([C@]45O[C@@]4(C)[C@@H]4C[C@H]5O[C@@H]5OC=C[C@@]54O)[C@H]4[C@]1(CO[C@]4(O)C(=O)OC)[C@@H]32 [AZADIRACHTIN A]" unit=% qualifier_operator== meas_value=81.7
compound=C=C1[C@@H]([C@@]2(C)[C@H](OC(C)=O)CC(=O)C(C)(C)[C@@H]2CC(=O)OC)[C@@H](OC(C)=O)[C@H](OC(=O)C(C)C)[C@@]2(C)[C@H](c3ccoc3)C[C@H]3O[C@]132 unit=% qualifier_operator== meas_value=81.7
compound=CC(=O)O[C@@H]1C[C@H]2C(C)(C)C(=O)C=C[C@]2(C)[C@H]2CC[C@]3(C)C(=CC[C@H]3[C@H]3COC(C)(C)[C@@H](O)[C@H](O)C3)[C@@]21C unit=% qualifier_operator== meas_value=69.8
compound=C=C1[C@@H]([C@@]2(C)C=CC(=O)C(C)(C)[C@@H]2CC(=O)OC)[C@@H](OC(C)=O)[C@H](OC(C)=O)[C@@]2(C)[C@H](c3ccoc3)C[C@H]3O[C@]132 unit=% qualifier_operator=< meas_value=50
